Source listed as patent US20260335314A1.

experiment: Kinetic solubility in biorelevant media; format: physicochemical; settings: fessif, pH 6.5, FeSSIF pH 6.5 (so in the source), 30 min, 37 °C
Measure Name: solubility at 0.5 h (µg/mL)
One number for each entry, in µg/mL.

I am curious: what solubility at 0.5 h value has been reported for Cn1c2nc(Cc3cc[nH]n3)sc2c2cnn(Cc3cccc(N)n3)c(=O)c21.O=C(O)C(O)C(O)C(=O)O (racemic) [Form C] ?
860

====

experiment: pH solubility in buffers; format: physicochemical; details: ph 6.8 buffer (usp), pH 6.8, pH 6.8 (USP), 2 h, 37 °C
Measure Name: solubility at 2 h
Show the value, then the unit it is measured in.

Cn1c2nc(Cc3cc[nH]n3)sc2c2cnn(Cc3cccc(N)n3)c(=O)c21.O=C(O)C(O)C(O)C(=O)O (racemic) [Form C] | 370 µg/mL

Switching to the query record.
I am curious: what solubility at 2 h value has been reported for Cn1c2nc(Cc3cc[nH]n3)sc2c2cnn(Cc3cccc(N)n3)c(=O)c21 [Form B] ?
30 µg/mL
